Data provenance is PubChem BioAssay (NCI).

system: KM12 colon; experiment: NCI-60 one-dose screen, 48 h (100 = growth as untreated, 0 = no growth, -100 = all killed); details: 10 µM
The panel holds about 83,000 compounds, 20% with a hit somewhere; the sample as a whole holds those more often.
REPORTED METRIC: growth (%)
Your answer should be a plain number; it is taken to be in %.

Worked examples, 2 molecules total:
[[record]]
molecule = "COC[C@@H](CC(C)C)N=C1N/C(=C\\c2ccc3ncsc3c2)C(=O)N1C"
measurement = 9.52

[[record]]
molecule = "Cc1ccc(F)cc1N/C=c1\\s/c(=C(\\C#N)C(=O)Nc2ccccc2)n(-c2ccccc2)c1=O"
measurement = 84.8


Query block: GET /values?readout=growth&system=KM12 colon&item= CN(C)c1nc(NCCNS(=O)(=O)c2ccc(C(=O)/C=C/c3ccccc3)cc2)nc(Nc2ccc(F)cc2)n1
Result block: -78.4

Query block: API: value(readout= growth, system= KM12 colon, query= COc1ccc([C@H]2C(C(=O)c3ccc(Cl)cc3)C3(N[C@@H]2c2ccccc2)C(=O)Nc2ccc(Br)cc23)cc1 (stereo partly specified) )
Result block: -5.82

Query block: # returns recorded growth (system: KM12 colon) for c1ccc(C(=C(c2ccc(OCCN3CCCCC3)cc2)c2ccc(OCCN3CCCCC3)cc2)C2CCCC2)cc1
Result block: -80.5

Query block: # get_value(readout= growth, system= KM12 colon) for O=c1[nH][nH]c(Nc2ccccc2)c1N=Nc1ccc(F)cc1
Result block: 55.3

Query block: Please state recorded growth (tested on KM12 colon) of CN1C(=O)N(C)C2SC(N/N=C/C=C/c3ccccc3)=NC21 (stereo unspecified)
Result block: 58

Query block: Find the measured growth: item [2H]C([2H])([2H])Oc1ccc2ncc(C#Cc3cncc(C(=O)Nc4ccc(CN5CCN(C)CC5)c(C(F)(F)F)c4)c3)n2n1 , target or system KM12 colon.
Result block: -94.1

Query block: Give growth (KM12 colon) of the following molecule: OCCNc1oc(-c2ccccc2)nc1[P+](c1ccccc1)(c1ccccc1)c1ccccc1
Result block: -35.9

Query block: Give the reported growth for COc1cc(-c2nc3cc(Cl)c(Cl)cc3[nH]2)ccc1OCc1nnc(-c2ccc(Br)cc2)o1 (system: KM12 colon).
Result block: 46.1
